Biological target: ZFP-insulin (Sus scrofa)
Construct: purchased Sigma-Aldrich
Assay: ITC titration of IR αCT peptide against ZFP-insulin
Assay type: binding, Porcine
Details: 25° C., sample ZFP-insulin 20 μM, titrant 200 μM, read-out: Kd
pKd: −log10 of the molar value. Ends that are not written are not given here.
recorded_metric: pKd

For record TFEDYLHNVVFVPRPS [IR-αCT] the listed pKd is < 3.00

====

Target: IGF-I (Homo sapiens)
Construct: purchased Novozymes GroPep (Australia)
Sequence (P05019 49-118 limits assumed): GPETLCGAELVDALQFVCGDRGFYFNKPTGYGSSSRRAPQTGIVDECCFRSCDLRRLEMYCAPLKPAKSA
Test: ITC titration of IGF-1R αCT peptide against IGF-I
Type: binding
Settings: 25° C., sample IGF-I (printed IGF-IR) 20 μM, titrant 200 μM, read-out: Kd
Ends that are not written are not given here.
recorded_metric: Kd

Lab note: measured Kd of VFENFLHNSIFVPRPE [IGF1R-αCT] was > 1000 µM

====

Target: IGF-I (Homo sapiens)
Construct: purchased Novozymes GroPep (Australia)
Test: ITC titration of IGF-1R αCT peptide against IGF-I
Type: binding
Conditions: 25° C., interaction with IGF-I, read-out: Kd (estimated, weaker than)
Ends that are not written are not given here.
recorded_metric: Kd

For reference, reported Kd for VFENFLHNSIFVPRPE [IGF1R-αCT] stands at > 1 mM

====

Biological target: ZFP-insulin (Sus scrofa, UniProt P01315)
Construct: purchased Sigma-Aldrich
Sequence (P01315 25-54 limits assumed): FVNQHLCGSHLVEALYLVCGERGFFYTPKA
Sequence (P01315 88-108 limits assumed): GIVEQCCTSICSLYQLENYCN
Experiment: ITC titration of IR αCT peptide against ZFP-insulin
Format: binding, Porcine
Conditions: 25° C., interaction with ZFP-insulin, read-out: Kd (estimated, weaker than)
pKd: −log10 of the molar value. Ends that are not written are not given here.
recorded_metric: pKd

Record summary for TFEDYLHNVVFVPRPS [IR-αCT] : reported pKd = < 3.00
